Below: a set of entries, each annotated with reported cAMP production activity (%).
Biological target: UniProtKB Q03431
Sequence (Q03431 27-593): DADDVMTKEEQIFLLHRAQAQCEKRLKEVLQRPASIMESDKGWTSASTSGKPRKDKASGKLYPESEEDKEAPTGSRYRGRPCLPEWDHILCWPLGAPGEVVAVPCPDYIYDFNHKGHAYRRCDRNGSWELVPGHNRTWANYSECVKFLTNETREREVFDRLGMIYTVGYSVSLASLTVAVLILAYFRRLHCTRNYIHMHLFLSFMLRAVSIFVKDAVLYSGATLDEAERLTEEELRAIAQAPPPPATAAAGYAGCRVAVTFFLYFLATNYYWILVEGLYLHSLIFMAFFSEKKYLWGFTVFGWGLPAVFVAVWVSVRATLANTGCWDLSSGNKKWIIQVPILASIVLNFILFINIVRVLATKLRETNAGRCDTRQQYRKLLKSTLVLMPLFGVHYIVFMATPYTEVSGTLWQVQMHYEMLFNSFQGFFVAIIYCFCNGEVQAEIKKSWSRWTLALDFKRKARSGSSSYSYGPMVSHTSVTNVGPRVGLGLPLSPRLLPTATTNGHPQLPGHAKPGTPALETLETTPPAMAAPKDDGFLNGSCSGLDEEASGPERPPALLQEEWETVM
Assay: In vitro cAMP signal activity in HKRK-B7 cells (LLC-PK1 cells overexpressing the human PTH1 receptor)
Type: cell-based
Settings: HKRK-B7 cells; compound at 1×10^−3 M; cAMP produced as percentage of that produced by hPTH(1-34) at 100 nM

Past entries and their recorded results:
>  <compound>
Cc1cc(N2CCNCC2=O)ccc1CCS(=O)(=O)N1CCC2(CC1)N=C(C1CCC(C)CC1)NC2=O (stereo not shown)

>  <measurement-target>
UniProtKB Q03431

>  <cAMP production activity (%)>
63%

$$$$
>  <compound>
COCCN(C(C)=O)c1ccc(/C=C/S(=O)(=O)N2CCC3(CC2)N=C(C2CCC(CCC(F)(F)F)CC2)NC3=O)c(C)c1 (stereo not shown)

>  <measurement-target>
UniProtKB Q03431

>  <cAMP production activity (%)>
66%

$$$$
>  <compound>
Cc1c(CCS(=O)(=O)N2CCC3(CC2)N=C(c2cccc(OC(F)(F)F)c2)NC3=O)cccc1C(=O)N(C)C

>  <measurement-target>
UniProtKB Q03431

>  <cAMP production activity (%)>
55%

$$$$
>  <compound>
Cc1cc(N(CC(F)(F)F)C(N)=O)ccc1CCS(=O)(=O)N1CCC2(CC1)N=C(c1cccc(OC(F)(F)F)c1)NC2=O

>  <measurement-target>
UniProtKB Q03431

>  <cAMP production activity (%)>
35%

$$$$
>  <compound>
Cc1cc2ccc1CCS(=O)(=O)N1CCC3(CC1)N=C(NC3=O)c1cc(cc(C(F)(F)F)c1)OCC/C=C/COCCN(C)C2=O

>  <measurement-target>
UniProtKB Q03431

>  <cAMP production activity (%)>
20%

$$$$

cAMP production activity (%) for O=C(Nc1ccc(CCS(=O)(=O)N2CCC3(CC2)N=C(C2CCCCC2)NC3=O)c(C(F)(F)F)c1)c1ccccc1 ? 23%

cAMP production activity (%) for Cc1cc(C(=O)N2CCC(C)(O)CC2)cc(C)c1/C=C/[S@TB4](=O)(=O)N1CCC2(CC1)N=C(c1cccc(CC(F)(F)F)c1)NC2=O ? 90%

Data credit: patent US9169254B2
